experiment: Toxicity liver stage against HepG2, at 10uM; type: cell-based; set-up: test concentration 10 uM, cell line HepG2-A16-CD81EGFP; conditions: human, HepG2-A16-CD81EGFP cells; read-out: INHIBITION
property-label: cytotoxicity at 10 µM (%)
One number for each entry, in %.

Worked cases, answers included:
# compound, observed-measurement
data = [
    ("O=C(Cn1nc2ccccc2n1)N1CCCC(O)(CN2CCCC2)C1 (stereo not given)", -10.4),
    ("CN1CCCN(c2nccc(-c3c[nH]nc3-c3ccncc3)n2)CC1", -11),
    ("CCNC(=O)N1CCCC(C(=O)c2cccc(OC(C)C)c2)C1 (stereo not given)", 8.62),
]

// batch mode: one cytotoxicity at 10 µM value per listed entry
1. CC(C)c1cc(CN2CCN(c3cccnc3)CC2)n(C)n1
2. Cn1cnnc1S(=O)(=O)C1CCN(S(=O)(=O)c2c(Cl)cccc2Cl)CC1
3. Cn1nccc1CNC(=O)Nc1cc(C(F)(F)F)c[nH]c1=O
4. CCC(C)(NCC(=O)NC(=O)NC)c1nc(C)cs1 (stereo not given)
5. CC(C)(C)OC(=O)Cn1cccc(S(=O)(=O)N2CCCCCC2)c1=O

## Result
1. -0.0184
2. -14.2
3. 1.04
4. -4.36
5. -2.28

Dear colleague, could you please provide cytotoxicity at 10 µM for the compounds listed below?
1. Cc1ncnc2c1CCN(Cc1nccs1)CC2
2. OC(CN(Cc1ccccc1)Cc1cccnc1)c1cccs1 (stereo not given)
3. Cc1cc(C)nc(CCNc2nccc(CCC(F)(F)F)n2)n1
4. CN(CCSc1ccccc1)C(=O)C(c1cccnc1)N1CCOCC1 (stereo not given)
5. CNc1ncccc1CN1CCN(C(C)=O)CC(C(N)=O)C1 (stereo not given)
6. O=C1COc2c(cccc2C(=O)N2CCCC2Cn2cccn2)N1 (stereo not given)
7. Cc1ccc(C(CNCC2CC2)N2CCOCC2)s1 (stereo not given)

## Result
[9.91, 4.01, -114, 4.94, 2.31, -4.47, -13.7]

Working through the 8 compounds below one at a time, give cytotoxicity at 10 µM for each.
1. Cc1ccc(-c2csc(N)c2C#N)c(C)c1
2. CC(C)c1sc(Cl)nc1C(=O)N1CCN(Cc2ccccc2)CC1
3. COCCCNC1CCCN(c2ccc(C)nn2)C1 (stereo not given)
4. Cc1ncsc1CN(Cc1ccccc1)Cc1ccncc1
5. Cc1cc(C(F)(F)F)nc(N2CCN(Cc3nccn3C)CC2)n1
6. CNC(=O)NC(=O)CCSCc1cc(Cl)cc2cccnc12
7. COc1ncc(NS(=O)(=O)c2cccc(C)c2)c(OC)n1
8. CN1CCCC(c2cccc(-c3cccc(F)c3)n2)C1 (stereo not given)

## Result
[10.5, -2.7, -9.9, -4.45, -4.28, -8.06, 10.4, -2.4]

For each of the items listed, what is its cytotoxicity at 10 µM?
1. CCNC(=O)[C@@H]1C[C@H](N)CN1C(=O)CCc1ccccc1Cl
2. COCCN(C)C(=O)Nc1cc2c(cc1SC)OCCO2

## Result
1: 4.79; 2: 4.69

----------
experiment: Toxicity liver stage against HepG2, at 10uM; type: cell-based; parameters: test concentration 10 uM, cell line HepG2-A16-CD81EGFP; conditions: human, HepG2-A16-CD81EGFP cells; read-out: INHIBITION
# YES = cytotoxicity at 10 µM below -10% (exclusive); NO = cytotoxicity at 10 µM at/above -10%

Solved entries (count: 5):
# compound, category-label
rows = [
    ("Cc1ccn(CC(=O)Nc2cc(-c3ccncc3)[nH]n2)n1", "YES"),
    ("CN(C)C(=O)N1CCC[C@]2(C(=O)N(C)C)CN(c3ccccn3)C[C@@H]2C1", "NO"),
    ("CC(C)c1noc(CNc2ccccc2CC(=O)N(C)C)n1", "YES"),
    ("Cc1nnc2n1CCN(C(=O)C(OC1CCCC1)c1ccccc1)C2 (stereo unspecified)", "NO"),
    ("Cn1ncnc1NCc1ccc(Cl)cc1", "NO"),
]

## Task Please indicate whether the reported cytotoxicity at 10 µM of "COC(=O)[C@@H](Nc1nc(C2CCCC2)nc2c1cnn2C)[C@@H](C)O" is strictly below -10%.
## Result YES

## Task Please indicate whether the reported cytotoxicity at 10 µM of CCNC(=O)N1CCC(NC(=O)NCCc2cccc(C)c2)C1 (stereo unspecified) is strictly below -10%.
## Result YES

## Task # strict comparison: is reported cytotoxicity at 10 µM < -10%? input = COCCCn1cnnc1C(C)NC(=O)c1[nH]c2ccc(C)cc2c1C (stereo unspecified)
## Result NO

## Task I wonder whether COc1cc(C(C#N)NC(=O)CC2=CCCCC2)cc(OC)c1OC (stereo unspecified) has cytotoxicity at 10 µM below -10%. Can you tell?
## Result NO

## Task Dear colleague, could you confirm whether cytotoxicity at 10 µM of "NCCN1C(=O)CC[C@H]2CN(Cc3ccc4occc4c3)CC[C@H]21" falls below -10%? Thanks.
## Result NO

----------
assay: Toxicity liver stage against HepG2, at 10uM; assay type: cell-based; design: test concentration 10 uM, cell line HepG2-A16-CD81EGFP; conditions: human, HepG2-A16-CD81EGFP cells; read-out: INHIBITION
property-label: cytotoxicity at 10 µM (%)
Numbers only, in %.

Could I get cytotoxicity at 10 µM for every one of these entries?
1. Cc1nccnc1CCC1COCCN1C(=O)CCc1c(C)noc1C (centres undefined)
2. c1cnnc(NCC2CN(Cc3cccc4c3OCCO4)CCO2)c1 (centres undefined)
3. Cc1cc(CN2CCC3(CC2)CC(Nc2ncccn2)CO3)nn1C (centres undefined)

## Result
[5.7, -9.93, -1.84]

Provide cytotoxicity at 10 µM values for the following items, in order.
1. Cc1cc(C(F)(F)F)cc(N2CCC3(CCC(=O)N(CCO)C3)CC2)n1
2. N#Cc1cccc(CN2C(=O)c3ccccc3CS2(=O)=O)c1
3. Cn1cnnc1C1CCCN(C(=O)NCCOc2ccccc2)C1 (centres undefined)
4. Cc1nc(CN2CCC3(CC2)NC(=O)CC3c2ccccc2)cs1 (centres undefined)

## Result
1. 8.09
2. -2.14
3. 7.48
4. 4.33

For every listed record, write down its cytotoxicity at 10 µM.
1. CN(C)S(=O)(=O)N1CCO[C@H]2[C@H](Oc3cccnc3)CC[C@@H]21
2. Cc1ccsc1[C@@H]1CCN(C(=O)CCc2cc(O)no2)C[C@H]1O
3. CCCc1nnc(NC(C)c2ccc3c(c2)OCCO3)o1 (centres undefined)
4. NC(=O)CN1CC2(CCC1=O)CCN(C(=O)c1ccccc1F)CC2
5. CCNc1cc2c(nn1)CCN(C(=O)c1cc(C)no1)C2

## Result
1: 4.64; 2: -4.73; 3: 0.965; 4: 23.5; 5: -14.5

Quick batch: cytotoxicity at 10 µM for everything below.
1. Cc1cccc(C)c1-c1cc(NCCO)nc2[nH]ccc12
2. Cc1nc(N(C)C)ncc1C(=O)N(Cc1ccncc1)CC1CCCO1 (centres undefined)
3. CN1CCCC1CNC(=O)CCCOc1ccc(F)cc1 (centres undefined)
4. Cc1cc(C(=O)N2CCc3nc(C4CCCCN4)ncc3C2)cs1 (centres undefined)

## Result
52.4
-1.59
-7.67
-22.4

For the 7 compounds below, give their cytotoxicity at 10 µM values.
1. COc1ccc(-c2nc3c([nH]2)CCNC3C(=O)O)c2ccc(C)nc12 (centres undefined)
2. Nc1nc(CCCNC(=O)c2ccc(C3CCCNC3)cc2)cs1 (centres undefined)
3. CNC(=O)NC(=O)CCSc1ccccc1C
4. CN(C)c1cc(CNCc2ccc(N3CCOCC3)cc2)ccn1
5. COc1ccc(NC(=O)c2ccc(CN3CC[C@H](O)C3)cc2)c(OC)n1
6. CC1CN(C)CCN1CC(=O)NCCOc1ccc(Cl)cc1 (centres undefined)
7. CCCc1nc(CNC(=O)Cc2csc(C)n2)cs1

## Result
1. 0.562
2. 2.77
3. 4.11
4. 23.3
5. 6.21
6. -8.69
7. -10.6

## Task Field request: cytotoxicity at 10 µM | item: COCC(=O)N1CCN(c2ccc(C(=O)OC)cc2)CC1C (centres undefined)
## Result -14.2

----------
experiment: Toxicity liver stage against HepG2, at 10uM; format: cell-based; parameters: test concentration 10 uM, cell line HepG2-A16-CD81EGFP; conditions: human, HepG2-A16-CD81EGFP cells; read-out: INHIBITION
property-label: cytotoxicity at 10 µM (%)
One number for each entry, in %.

Batch request: cytotoxicity at 10 µM for each of the following molecules.
1. CC(C)c1nccc(N2CCN(CC(=O)N3CCOCC3)CC2)n1
2. CC(C)N1CCC(CC(=O)N2CCN(Cc3nccn3C)CC2)CC1
3. CC(=O)NC(=O)C1(CCCc2ccncc2)CCN1 (configuration not stated)
4. O=c1c(-c2ccnc(NC3CCCCC3)n2)cnc2sc(Cl)cn12
5. c1cnc(N2CCC3(COCCN(CC4CC4)C3)C2)nc1 (configuration not stated)

## Result
1: -8.68; 2: -3.91; 3: -24.5; 4: -6.22; 5: 0.668

For every item below, please supply its cytotoxicity at 10 µM.
1. Cc1cc(NC(=O)CN2CCN(C3CCCC3)C(=O)C2)nn1C
2. CCCS(=O)(=O)N1CC(=O)N(Cc2cccc(OC)c2OC)CC(O)C1 (configuration not stated)
3. CC(C)N1CCC(c2nc3ccc(-c4ccnn4C)cn3n2)CC1
4. CCN(CC)C(=O)[C@@H]1C[C@@H](NC(=O)c2cccn2C2CC2)CN1C
5. CCCN1CCC2(CC1)COc1ccccc1S(=O)(=O)N(CC1CC1)C2
6. CCC(C(=O)NC1CCCCC1)n1cccc(OC)c1=O (configuration not stated)
7. Cn1ccnc1-c1cn(CCCc2nnc(N)s2)nn1

## Result
0.825
-12.9
14.9
-5.94
-3.43
-2.23
10

Batch request: cytotoxicity at 10 µM per item, same order as input.
1. Cc1cc(C)n(C2CN(c3ncnc4[nH]ccc34)C2)n1
2. O=S(=O)(Cc1cccc(Cl)c1)CC(O)Cn1cccn1 (configuration not stated)
3. NC(=O)c1cc(CC2CCCN(c3cnccn3)C2)ncn1 (configuration not stated)
4. OCc1c(Cl)ncn1-c1ccc(F)cc1
5. CN1CC[C@]2(CN(C(=O)c3ccc[nH]3)C[C@H]2c2ccccc2)C1=O
6. Cc1cc(NC(=O)c2ccc(C)c(F)c2)[nH]n1
7. O=C(C[S+]([O-])Cc1ccc(F)cc1Cl)N1CCc2sccc2C1 (configuration not stated)
8. CCc1nc(C2CCCN(C(=O)c3cccc4c3ccn4C)C2)no1 (configuration not stated)

## Result
[6.59, -12.5, -1.15, 6.61, 11.6, -42.1, -2.22, -14.4]
